# GI50 per record follows
System: OVCAR-3
Test: NCI tumour cell line growth inhibition, 48 h
Active and inactive are the calls of the source. Rule as the data show it: active = GI50 up to about 1.1 µM and inactive = higher.

CC1=CC(=O)/C(=C/NC(=S)NCc2ccccc2)C(=O)O1: > 100 µM (inactive)
COc1cccc2c1C(=O)c1c(O)c3c(c(O)c1C2=O)C[C@@](O)(C(=O)CN1CCOCC1)C[C@@H]3OC1CC(N)C(O)C(C)O1 (stereo partly drawn): 0.000912 µM (active)

Please examine the following record next.
Data request, read-out GI50, for COc1ccc2c(c1)CCCC1C3=NCCC3(C)CSC21 (stereo not drawn)
97.3 µM (inactive)

---

Tested on: MOLT-4
Test: NCI tumour cell line growth inhibition, 48 h
Activity calls are given as the source filed them. Rule as the data show it: active = GI50 up to about 1.1 µM and inactive = higher.
Pick from 1 (yes) (active), 0 (no) (inactive) when you respond.

N#CC(C(=O)CCCC(=O)Nc1ccccc1[N+](=O)[O-])c1c(Cl)cccc1Cl (stereo not given): 0 (no)
CCOC(=O)CN(CC)C(=O)NC12CC3CC(CC(C3)C1)C2: 0 (no)

Recorded call for CC(C)=CCc1cc(C2COc3cc4c(c(O)c3C2=O)C=CC(C)(C)O4)c(O)cc1O (stereo not given) ?
0 (no)

Recorded call for C=C(C)C1CC2(C)C(C)CC(OC(=O)/C(C)=C\C)CC2C(OC(=O)/C(C)=C\C)C1O (stereo not given) ?
0 (no)

---

Test system: ACHN
Assay: NCI tumour cell line growth inhibition, 48 h
Calls of active or inactive are those of the source. Cut-off read from the data, not from the text of the source: active = GI50 up to about 1.1 µM and inactive = higher.
Pick from active, inactive when you respond.

Solved cases below.
O=C1C=CC(=O)C12CCc1ccccc12: inactive
[O-][n+]1ccc(NO)c2ccccc21: active
OCC1C(OCc2ccccc2)C(OCc2ccccc2)C(OCc2ccccc2)CN1Cc1ccccc1 (stereo not drawn): inactive
COc1ccc(N2C(=O)/C(=C(\C)c3cc4ccccc4oc3=O)N=C2c2cc([N+](=O)[O-])ccc2Cl)cc1: inactive
O=C1c2c(Br)sc(Br)c2[C@@H](O)[C@H]1O: inactive
O=C(C/N=C(\CN(c1ccccc1)c1ccccc1)Oc1c([N+](=O)[O-])cc([N+](=O)[O-])cc1[N+](=O)[O-])N1CCNCC1: inactive
Nc1nc(-c2ccc(Cl)c([N+](=O)[O-])c2)cs1: inactive
Cc1c(O)c(C)c2c(C)cn(C(=O)C(C)(C)C)c2c1C: inactive

Recorded call for CC(=O)N1C(Nc2ccccc2)CCN1c1ccccc1 (stereo not drawn) ?
inactive

Recorded call for CN1CCN(CCCNN)CC1 ?
inactive

Recorded call for COC(=O)C12C3C=CC(O3)C1C1C=CC2O1 (stereo not drawn) ?
inactive

Recorded call for CC(C)(Cl)C(Br)CCC(C)(Cl)C(Br)CBr (stereo not drawn) ?
inactive

Recorded call for COc1cc(OC)c2c3c(OC)cc(OC)c4c(=O)c(O)c(C[C@@H](C)O)c(c5c(C[C@@H](C)O)c(O)c(=O)c1c25)c43 ?
inactive

---

# GI50 per record follows
Test system: SF-539
Assay: NCI tumour cell line growth inhibition, 48 h
Calls of active or inactive are those of the source. No stated cut-off is given here; in the data, active = GI50 up to about 1.1 µM and inactive = higher.

Below, each entry is followed by its recorded GI50 result.
COC(=O)c1c(C)cccc1C1CN=NC12Cc1cccc(C)c1C2=O (configuration not stated): 22.8 µM (inactive)
CC1=Nc2c(O)nc(S)nc2NC(c2ccc(Cl)c(Cl)c2)C1 (configuration not stated): 21.1 µM (inactive)
CC1OC(O[C@@H]2OC=C(C=O)[C@@]3(O)CC[C@H](C)[C@@H]23)C(O)C(O)C1O (some centres not stated): > 100 µM (inactive)
c1ccc(-c2csc3ncn4cnnc4c23)cc1: > 100 µM (inactive)
CC(=O)OCC1OC(n2ncc(=O)[nH]c2=O)C(OC(C)=O)C1OC(C)=O (configuration not stated): 30.3 µM (inactive)
Clc1ccc(-c2c(C3=NCCCN3)nnn2-c2ccccc2)cc1: > 100 µM (inactive)

Data request, read-out GI50, for O=C(C/N=C(\CN(c1ccccc1)c1ccccc1)Oc1c([N+](=O)[O-])cc([N+](=O)[O-])cc1[N+](=O)[O-])N1CCNCC1
> 100 µM (inactive)
